tested on: MALME-3M melanoma; test: NCI-60 one-dose screen, 48 h; conditions: 10 µM unless noted
About 83,000 compounds went through this panel and 20% of them were active in at least one assay; those are over-represented in the sample as a whole. The source made the active and inactive calls. The calls were made as follows: active = growth percent below 10; inactive = the rest.
Outcomes you can answer with include only these: active, inactive

Please share the test call associated with "Nc1n[nH]c2cccc(C#Cc3cccc(C(=O)Nc4ccc(CN5CCOCC5)c(C(F)(F)F)c4)c3)c12" .
active

Try "CCOc1ccc(C(=O)Cc2ccccc2)cc1" next.
inactive

Try "Cc1ccc(NC(=O)c2sc3nc(C)c(C(=O)c4ccccc4)cc3c2N)cc1" next.
inactive

Try "CN1CCN(c2ccc(Nc3ncc(C(N)=O)c(NCCCNC(=O)C4CCC4)n3)cc2)CC1" next.
inactive

Try C=C(CNCCO)[C@@H]1CC[C@]2(CO)CC[C@]3(C)[C@H](CC[C@@H]4[C@@]5(C)CCC(NCCc6ccc(O)cc6)C(C)(C)[C@@H]5CC[C@]43C)[C@@H]12 (some centres undefined) next.
active

Try "COc1ccc2c(c1)c(-c1nc(-c3c[nH]c4c(Cl)nccc34)cs1)cn2C" next.
inactive

Try "O=C(NCc1cccnc1)/C(=C\c1ccc(Br)cc1)S(=O)(=O)c1ccccc1" next.
active

Try "O=C1/C(=C/c2ccc(-c3ccccc3C(F)(F)F)o2)SC(=S)N1CCc1ccc(O)cc1" next.
inactive

Try "COc1ccc2c(c1)oc1c(C)c3c(c(C)c12)C(=O)N(Nc1ccccc1)C3=O" next.
inactive

Try COc1nc(=O)n(C2C=CC(=O)O2)cc1F (centres undefined) next.
inactive

Try "C#Cc1cc(C(=O)Nc2ccc(CN3CCN(C)CC3)c(C(F)(F)F)c2)ccc1C" next.
inactive

Try "Nc1nc(Nc2ccc(F)cc2)nn1C(=O)c1cc(Cl)ccc1Cl" next.
inactive

Try "CCOC(=O)C(=Cc1ccc(C#N)cc1)C(=O)OCC" next.
active

Try "COc1cc(OC)cc(-c2ccc(-c3ccc(C(=N)N)cn3)s2)c1" next.
inactive

Try "Cc1ccc(S(=O)(=O)Nc2cc(Sc3ccccc3)c(O)c3ccccc23)cc1" next.
inactive

Try "Nc1n[nH]c2cccc(C#Cc3cccc(NC(=O)c4ccc(N5CCOCC5)c(C(F)(F)F)c4)c3)c12" next.
inactive

Try "CCN(c1cc(-c2ccc(CN3CCC(/C=C/S(=O)(=O)c4ccccc4)CC3)cc2)cc(C(=O)NCc2c(C)cc(C)[nH]c2=O)c1C)C1CCOCC1" next.
inactive

Try "Cc1[nH]c(C(=O)Nc2nc3ccc(NC(=O)CCN)cc3s2)c(Cl)c1Cl" next.
inactive

Try "COc1cc(F)c(/C=C/c2cc(/C=C/c3cc(OC)c(OC)cc3F)n(-c3cc(F)cc(F)c3)n2)cc1OC" next.
active

* * *

Tested on: MDA-MB-231 breast
Test: NCI-60 one-dose screen, 48 h
Settings: 10 µM unless noted
Description: Cells are grown in 96 well plates and exposed to the test compound for 48 hours. Compounds are tested at a single concentration, which is 10^-5 M for most compounds. The reported endpoint is percent growth (GI% or GIPRCNT), where numbers from 0 - 100% represent growth inhibition, and numbers from -100% - 0 represent cell death. For example, a value of 40 represents 60% growth inhibition. A value of 0 means no net growth occurred over the course of the experiment. […]
This is part of a sample that, as a whole, favours compounds with a hit. Of some 83,000 tested, about 20% had one in any assay. Activity calls are given as the source filed them. Rule for the calls: active = growth percent below 10; inactive = the rest.
Outcomes you can answer with include only these: active, inactive

Please share the test call associated with "CCCCCCCC/C=C\CCCCCCCCOc1ccccc1CC(=O)NCC[N+]1(C)CCOCC1" .
inactive

Try "CC(=O)OC[C@]12CCC(C)(C)C=C1[C@H]1CC[C@@H]3[C@@]4(C)CCCNC(C)(C)[C@@H]4CC[C@@]3(C)[C@]1(C)CC2" next.
inactive

Try "CCOC(=O)c1nc2c3ccccc3cnn2c1C(=O)c1ccc(OC)cc1" next.
inactive

Try "N=C(N)SCc1c2ccccc2c(CSC(=N)N)c2ccccc12" next.
inactive

Try "COc1ccccc1/C=C1\COc2ccc(O)c(O)c2C1=O" next.
inactive

Try "C=C[C@]1(C)C=C2CC[C@@H]3C(C)(C)C(=O)CC[C@@]3(C)[C@@H]2CC1" next.
inactive

Try CC1=C2[C@@H](CC1)[C@]1(C)O[C@@](C(C)C)(C[C@H]1OC(=O)CO)[C@H]2OC(=O)C1CC1c1ccccc1 (some centres undefined) next.
inactive

Try "CN1C(=O)/C(=C/c2ccc(C(=O)Nc3ncc(Cc4ccccc4Cl)s3)cc2)SC1=S" next.
inactive

Try "O=C1C=C(Nc2ccccc2)c2ncccc2C1=O" next.
active
